Target: Glutamate receptor ionotropic, NMDA 2B (Rattus norvegicus, UniProt Q00960)
Sequence (Q00960 whole entry): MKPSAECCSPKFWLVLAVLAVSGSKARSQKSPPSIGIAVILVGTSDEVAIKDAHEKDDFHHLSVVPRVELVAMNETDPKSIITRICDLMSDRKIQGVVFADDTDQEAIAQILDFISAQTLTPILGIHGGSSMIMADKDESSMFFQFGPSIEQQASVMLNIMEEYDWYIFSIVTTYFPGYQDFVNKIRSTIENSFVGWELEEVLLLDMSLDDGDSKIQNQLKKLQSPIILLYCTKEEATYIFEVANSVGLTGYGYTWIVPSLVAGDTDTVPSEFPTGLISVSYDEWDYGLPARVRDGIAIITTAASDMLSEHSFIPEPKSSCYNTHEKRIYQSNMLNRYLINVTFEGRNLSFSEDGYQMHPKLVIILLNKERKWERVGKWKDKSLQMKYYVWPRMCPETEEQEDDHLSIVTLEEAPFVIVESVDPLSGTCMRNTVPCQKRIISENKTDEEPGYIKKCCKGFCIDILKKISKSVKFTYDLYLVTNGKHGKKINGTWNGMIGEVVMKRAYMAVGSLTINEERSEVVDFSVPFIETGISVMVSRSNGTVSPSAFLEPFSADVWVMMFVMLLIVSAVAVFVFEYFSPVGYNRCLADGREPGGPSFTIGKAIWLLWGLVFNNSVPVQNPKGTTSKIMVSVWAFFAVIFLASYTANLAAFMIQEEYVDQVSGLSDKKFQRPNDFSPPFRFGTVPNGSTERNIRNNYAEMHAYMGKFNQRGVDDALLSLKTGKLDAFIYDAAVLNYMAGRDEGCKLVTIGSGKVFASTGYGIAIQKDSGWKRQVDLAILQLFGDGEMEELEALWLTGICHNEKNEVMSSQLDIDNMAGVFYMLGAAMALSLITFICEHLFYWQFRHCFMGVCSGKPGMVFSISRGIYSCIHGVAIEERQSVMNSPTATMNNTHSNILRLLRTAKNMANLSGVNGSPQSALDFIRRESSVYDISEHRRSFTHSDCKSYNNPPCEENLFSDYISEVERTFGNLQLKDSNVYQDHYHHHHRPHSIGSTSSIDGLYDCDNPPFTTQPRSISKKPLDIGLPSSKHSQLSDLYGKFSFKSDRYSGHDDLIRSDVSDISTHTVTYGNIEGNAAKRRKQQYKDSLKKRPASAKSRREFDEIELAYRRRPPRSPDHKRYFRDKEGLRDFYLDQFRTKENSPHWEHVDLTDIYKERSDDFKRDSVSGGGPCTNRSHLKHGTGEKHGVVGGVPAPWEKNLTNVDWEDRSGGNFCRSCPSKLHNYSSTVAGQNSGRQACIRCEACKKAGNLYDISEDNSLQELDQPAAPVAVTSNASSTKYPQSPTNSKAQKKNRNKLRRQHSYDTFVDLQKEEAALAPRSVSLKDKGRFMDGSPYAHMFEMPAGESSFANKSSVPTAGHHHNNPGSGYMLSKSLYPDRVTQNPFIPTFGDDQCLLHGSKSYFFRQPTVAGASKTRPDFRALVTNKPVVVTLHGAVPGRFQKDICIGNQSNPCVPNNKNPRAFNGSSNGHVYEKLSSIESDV
assay-metric: Ki (nM)
Reply with just the number (in nM).

Recorded results for 6 molecules are shown here.
Cc1cnc(OCc2cn(-c3ccc(F)c(OC(F)F)c3)nn2)nc1: 8.9
FC(F)Oc1cc(-n2cc(COc3cnccn3)nn2)ccc1Cl: 680
FC(F)Oc1cc(-n2cc(CNc3ncco3)nn2)ccc1Cl: 810
Cc1ccnc(OCc2cn(-c3ccc(F)c(OC(F)F)c3)nn2)n1: 13
FC(F)Oc1cc(-n2cc(CNc3ncccn3)nn2)ccc1Cl: 560
Fc1ccc(-n2cc(COc3ncc(N4CCC4)cn3)nn2)cc1OC(F)F: 6.8

Entry FC(F)Oc1cc(-n2cc(COc3ccncn3)nn2)ccc1Cl : reported Ki = ?
900

Which Ki is listed for Fc1ccc(-n2cc(COc3nccc(N4CC(F)C4)n3)nn2)cc1OC(F)F ?
14

Which measured Ki value corresponds to FC(F)Oc1cc(-n2cc(CNc3ccccn3)nn2)ccc1Cl ?
630
